- systemTested: IDO1 (Homo sapiens)
- Sequence (P14902 whole entry): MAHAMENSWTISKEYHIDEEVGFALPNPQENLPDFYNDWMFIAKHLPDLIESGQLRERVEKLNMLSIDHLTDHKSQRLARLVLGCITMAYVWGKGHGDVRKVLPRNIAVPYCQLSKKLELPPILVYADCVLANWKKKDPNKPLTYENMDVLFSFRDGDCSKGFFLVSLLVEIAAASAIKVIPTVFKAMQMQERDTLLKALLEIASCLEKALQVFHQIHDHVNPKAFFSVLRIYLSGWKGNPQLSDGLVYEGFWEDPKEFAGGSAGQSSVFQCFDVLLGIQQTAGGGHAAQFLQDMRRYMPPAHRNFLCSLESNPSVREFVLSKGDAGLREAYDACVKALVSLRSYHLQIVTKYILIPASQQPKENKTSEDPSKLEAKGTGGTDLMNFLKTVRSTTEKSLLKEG
- protocolNotes: IDO1 Cellular Assay in Hela Cells Stimulated with IFNγ
- Assay type: cell-based
- cond: 100 ng/mL IFNγ, 300 uM L-tryptophan, about 48 hours, fluorescence readout
Threshold-based label: IC50 under 800 nM gives t, IC50 not under 800 nM gives f.

Request: Answer whether the molecule O=C(NC1CCC2CC1CCC2c1ccnc2ccc(F)cc12)c1ccc(Cl)cc1 (single isomer, unassigned) [Example 6] has IC50 strictly less than 800 nM
Response: f

Request: Answer whether the molecule O=C(Nc1ccc(Cl)cc1)C1CCC2CC1CCC2c1ccnc2ccc(F)cc12 (single isomer, unassigned) [Example 4] has IC50 strictly less than 800 nM
Response: f

Request: Answer whether the molecule O=C(Nc1ccc(Cl)cc1)C1CCC2CC1CCC2c1ccnc2ccc(F)cc12 (single isomer, unassigned) [Example 3] has IC50 strictly less than 800 nM
Response: t

Request: Answer whether the molecule O=C(NC1CCC2CC1CCC2c1ccnc2ccc(F)cc12)c1ccc(Cl)cc1 (single isomer, unassigned) [Example 5] has IC50 strictly less than 800 nM
Response: t

Request: Answer whether the molecule O=C(Nc1ccc(Cl)cc1)C1CCC2CC1CCC2c1ccnc2ccc(F)cc12 (single isomer, unassigned) [Example 2] has IC50 strictly less than 800 nM
Response: t

Request: Answer whether the molecule O=C(NC1CCC2CC1CCC2c1ccnc2ccc(F)cc12)c1ccc(Cl)cc1 (single isomer, unassigned) [Example 8] has IC50 strictly less than 800 nM
Response: f

Request: Answer whether the molecule O=C(NC1CCC2CC1CCC2c1ccnc2ccc(F)cc12)c1ccc(Cl)cc1 (single isomer, unassigned) [Example 7] has IC50 strictly less than 800 nM
Response: t

Request: Answer whether the molecule O=C(Nc1ccc(Cl)cc1)C1CCC2CC1CCC2c1ccnc2ccc(F)cc12 (single isomer, unassigned) [Example 1] has IC50 strictly less than 800 nM
Response: t
